Origin of the recorded values: patent US20210253725A1

Biological target: T1, CD134 protein (His-tagged, Sino Biological Inc. 10481-H08H) (human, UniProt P43489 29-216)
T1 construct: bought protein coated on ELISA plates; also called OX40; TNFRSF4; not shown: His tag
T1 sequence (looked up): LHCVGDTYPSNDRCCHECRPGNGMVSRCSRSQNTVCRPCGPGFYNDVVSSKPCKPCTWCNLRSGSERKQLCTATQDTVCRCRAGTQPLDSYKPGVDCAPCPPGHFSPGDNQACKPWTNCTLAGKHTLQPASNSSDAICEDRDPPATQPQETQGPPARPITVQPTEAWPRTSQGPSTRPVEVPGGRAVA
Assay: ELISA, coated His-tagged CD134; note: test concentration or dose not given here
// returns N unless ELISA [abs. corr.] is strictly below 2 abs. corr., in which case Y

BINDER	GROUP
P018.S.12.A.E02 (antibody, V domains shown, V regions on human Ig constant parts; also called AB134_73) VH: QSVEESGGRLVTPGTPLTLTCTASGFTLSSYYMGWVRQAPGKGLEWIGIIYPSGSAYYATWTKGRFTISRTSTTVDLKVTGPTTEDTATYFCARSTTSSLYYGYNLWGQGTLVTVSS VL: DIVMTQTPASVEAAVGGTVTIKCQASASITNWLAWYQQKPGQPPKLLIYKASTLESGVPSRFKGSGSGTEFTLTISDLESADAASYYCQSNYGGGSDTSHTFGGGTGVVVK	N
P018.S.04.A.C06 (antibody, V domains shown, V regions on human Ig constant parts; also called AB134_8) VH: QSVEESGGRLVTPGTPQTLTCTVSGFSLSSYAMSWVRQAPGKGLEWIGIISSSGSTYYASWAKGRFTISKTSTTVDLKITSPTTEDTATYFCARDAYPSYSPFGYYFTLWGQGTLVTVSS VL: AIKMTQTPASVSAAVGGTVSINCQASEDIYNYLAWYQQKPGQPPKLLIYDASDLASGVPSRFKGSGSGKQFTLTISGVQSDDAATYYCQHGYFTYSGENAFGGGTEVVVK	N
P018.S.12.A.B06 (antibody, V domains shown, V regions on human Ig constant parts; also called AB134_60) VH: QEQLEESGGGLVQPEGSLTLTCTASGFSFSYYWMCWVRQAPGKGLEWSACIGTGSGSTYYATWAKGRFTISKTSSTTVTLQMTSLTAADTATYFCARDWGIYSSDAYYMDYFNLWGPGTLVTVSS VL: AFELTQTPASVEAAVGGTVTIKCQASQSIGSYLAWYQQKPGQPPKPLIYEASKLASGVSSRFKGSGSGTQFTLTISGVESADAATYYCQQGGISTNVQNAFGGGTEVVVK	Y
P018.S.12.A.H01 (antibody, V domains shown, V regions on human Ig constant parts; also called AB134_88) VH: QSVEESGGRLVTPGTPLTLTCTVSGFSLSSYAMSWVRQAPGKGLEWIGDINSYATTYYASWAKGRFTISKTSTTVDLKLTSPTTEDTATYFCAREAGYADLWGQGTLVTVSS VL: AYDMTQTPASVEVAVGGTVTIKCQASQSISRYLSWYQQEPGQRPKLLIYEASTLASGVSSRFKGSGSGTQFTLTISGVESADAATYYCQQDYDSTDVGNTFGGGTEVVVK	Y
P018.S.11.A.B04 (antibody, V domains shown, V regions on human Ig constant parts; also called AB134_25) VH: QEQLEESGGDLVKPEGSLTLTCTASGFSFSSAYYMCWVRQAPGKGLEWIACIDAGSSGSTYYASWAKGRFTISKTSSTTVTLQMTSLTAADTATYFCARDGGSTTGYGWLDLWGQGTLVTVSS VL: AVVMTQTASPVSAAVGGTVTINCQASQSIGTNYLSWYQQKPGQPPKLLIYEASNLETGVPSRFKGSGSGTEYSLTISDLESADAATYYCLYSYYSSSSAYTFGGGTEVVVK	Y
P018.S.13.A.G06 (antibody, V domains shown, V regions on human Ig constant parts; also called AB134_92) VH: QSLEESGGGLVKPGASLTLTCKASGFDLSSYYYMCWVRQAPGKGLEWIGCFYTDDSANTWYATWAKGRFTISKTSSTTVTLQMTSLTAADTATYFCARDASGWYWFNLWGPGTLVTVSS VL: AQVLTQTPSPVSAAVGGTVTISCQSSQSLHDDNALAWYQQKPGQPPKLLIYLASYLASGVPSRFKGSGSGTQFTLTISEVQSDDAATYYCQGAYSGDNNSFGGGTEVVVK	Y
P018.S.11.A.G02 (antibody, V domains shown, V regions on human Ig constant parts; also called AB134_42) VH: QSVEESGGRLVTPGTPLTLTCTVSGFSLSGYDMSWVRQAPGKGLEWIGYIYGGNTYYANWAKGRFTISKTSTTVDLKMTSPTTEDTATYFCTRVGAGYSGVWAYFNLWGPGTLVTVSS VL: AQVLTQTPSSVSAAVGGTVTINCQSSQSVDSDNYLAWYQQKPGQPPKLLIYDTSKLASGVPSRFTGSGSGTQFTLTISGVQSDDAATYYCQGTYYNAGWYFAFGGGTEVVVK	Y
